Reported patients with anti-drug antibodies by item:
assay.procedure: patients with anti-drug antibodies; higher = more immunogenic
Please state the figure in %; there is no need to write the unit.

unnamed (protein) chain 1: EVQLVESGGGLVQPGGSLRLSCAASGFTFSNYGMSWVRQAPGKGLEWVASISSGGGSTYYPDNVKGRFTISRDDAKNSLYLQMNSLRAEDTAVYYCARGGAGIDYWGQGTLVTVSS chain 2: DIQMTQSPSSLSASVGDRVTITCKSIQTLLYSSNQKNYLAWFQQKPGKAPKLLIYWASIRKSGVPSRFSGSGSGTDFTLTISSLQPEDLATYYCQQYYSYPLTFGGGTKLEIK: 0

Shift focus to the following entry.
patients with anti-drug antibodies reading for unnamed (protein) chain 1: QVQLVQSGGGLVQAGGSLRLSCAASGGTFATSPMGWLRQAPGKGTEFVAAISPSGGDRIYADSVKGRFTISRDNAGYFIYLQMNSLKPEDTAVYYCAVRRRFDGTSYYTGDYDSWGQGTLVTVSS chain 2: EIVLTQSPGTLSLSPGERATLSCRASQSVSSSYLAWYQQKPGQAPRLLIYDASSRATGIPDRFSGSGSGTDFTLTISRLEPEDFAVYYCQQYSYSPVTFGQGTKVEIK : 0

src = the FLAb antibody collection
